- target_under_test: GlcNAc(a1-4)Gal(b1-4)GalNAc
- experiment_summary: glycan array binding signal (z-score within array); higher = stronger binding
- experimental_conditions: glycan notation: IUPAC condensed, linker removed
The entries come from a sample that favours the strongest signals as a whole.
result_type: glycan array binding signal (z-score)
Form: value (number only, do not type unit).

Consider Threefoil (Haloarcula marismortui) (protein) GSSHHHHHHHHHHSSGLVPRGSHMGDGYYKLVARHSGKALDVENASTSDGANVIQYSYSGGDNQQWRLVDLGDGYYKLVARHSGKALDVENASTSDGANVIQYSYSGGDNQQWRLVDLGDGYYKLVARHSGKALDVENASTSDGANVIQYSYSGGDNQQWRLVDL . Its measured glycan array binding signal (z-score) is -0.271
